Every entry's value here was drawn from the supplement of paper PMC10065799.

test system: Fer (mouse); experiment: phosphorylation enrichment, bacterial display (enrichment ratio); higher = better substrate or ligand; peptides without Tyr show the background;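 further: 11-residue human phosphosite peptides and single-mutation variants displayed on the E. coli surface, counted by deep sequencing, each peptide's frequency after selection divided by its frequency in the unselected input library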;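 further: frequency after pTyr selection over input frequency; kinase dosed for 20-30% of maximal phosphorylation in three min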
readout: phosphorylation enrichment
No unit in the answer, please; the number alone is enough.

Recorded results for 4 sequences are shown here.
1) YSKDNYKRVTG [PANK2_Y405]
0.494
2) QLRPGYIPIPV [BAG3_Y93]
0.645
3) ALMGPYHGQVL [HADHA_Y343_L342P]
0.336
4) IGGHAYGDQYR [IDH1_Y135_R132G]
0.448

query: Consider the sequence SETSRYLSELF [KCNJ3_Y67_D70E] and give its measured phosphorylation enrichment.
result: 0.376

query: Consider the sequence SVVVPYEPPKV [TP53_Y220_E224K] and give its measured phosphorylation enrichment.
result: 0.45

query: Consider the sequence IENKLCGMSDP [RET_Y1062_Y1062C] and give its measured phosphorylation enrichment.
result: 0.536

query: Consider the sequence CSPLLYRVIMS [OR8D4_Y132] and give its measured phosphorylation enrichment.
result: 0.577

query: Consider the sequence LITTLYSGFLG [KCNQ1_Y267_I268S] and give its measured phosphorylation enrichment.
result: 0.824

query: Consider the sequence KHMADYPDCKY [SOX11_Y113_Y116C] and give its measured phosphorylation enrichment.
result: 0.504
